- EXPERIMENT: Oral bioavailability in mouse at 5 mg/kg
- Type: ADME, organism-based
- CONDITION SET: in vivo
PROPERTY: bioavailability (%)
Your answer is read as %, so omit the unit and give the number.

Inquiry: // bioavailability lookup, key: O=C(O)C1CN(Cc2ccc(-c3noc(-c4onc(-c5ccccn5)c4C(F)(F)F)n3)cc2)C1
Reply text: 70

* * *

- EXPERIMENT: Half life in cynomolgus monkey at 1 mg/kg, iv
- Format: ADME, organism-based, Macaca fascicularis
- CONDITION SET: in vivo
PROPERTY: half-life (h)
Your answer is read as h, so omit the unit and give the number.

Inquiry: // half-life lookup, key: O=C(O)C1CN(Cc2ccc(-c3noc(-c4onc(-c5ccccn5)c4C(F)(F)F)n3)cc2)C1
Reply text: 1.1

* * *

- EXPERIMENT: Plasma concentration Lewis rat at 1 mg/kg, po after 4 hrs
- Assay type: ADME, organism-based
Each record is given YES if its reported concentration at 4 h is strictly below 2000 nM. Records at or above 2000 nM are given NO.

Inquiry: Hello, I'm reviewing records and need to know if concentration at 4 h of CCc1c(-c2nc(-c3ccc(CN4CC(C(=O)O)C4)cc3)no2)noc1-c1ccccn1 is below 2000 nM. Could you check?
Reply text: YES

Inquiry: Entry to check: O=C(O)C1CN(Cc2ccc(-c3noc(-c4onc(-c5ccccc5)c4C(F)(F)F)n3)cc2)C1
Reply text: NO

Inquiry: Entry to check: O=C(O)C1CN(Cc2ccc(-c3noc(-c4onc(-c5ccccn5)c4C(F)(F)F)n3)cc2)C1
Reply text: NO

Inquiry: Entry to check: CC(C)c1c(-c2nc(-c3ccc(CN4CC(C(=O)O)C4)cc3)no2)noc1-c1ccccn1
Reply text: YES

Inquiry: Entry to check: CCCc1c(-c2ccccn2)noc1-c1nc(-c2ccc(CN3CC(C(=O)O)C3)cc2)no1
Reply text: YES

Inquiry: Entry to check: CCCc1c(-c2nc(-c3ccc(CN4CC(C(=O)O)C4)cc3)no2)noc1-c1ccccn1
Reply text: YES

* * *

- EXPERIMENT: Protein binding in monkey plasma
- Type: ADME, cell-free, Macaca mulatta
- CONDITION SET: rhesus monkey, read-out: PPB (converted)
PROPERTY: fraction unbound
Please state the value as a number alone, without comment.

Inquiry: // fraction unbound lookup, key: O=C(O)C1CN(Cc2ccc(-c3noc(-c4onc(-c5ccccn5)c4C(F)(F)F)n3)cc2)C1
Reply text: 0.065

* * *

- EXPERIMENT: Volume of distribution at steady state in mouse at 2 mg/kg, iv
- Format: ADME, organism-based
- CONDITION SET: in vivo, read-out: Vdss
PROPERTY: Vd (L/kg)
Your answer is read as L/kg, so omit the unit and give the number.

Inquiry: // Vd lookup, key: O=C(O)C1CN(Cc2ccc(-c3noc(-c4onc(-c5ccccn5)c4C(F)(F)F)n3)cc2)C1
Reply text: 0.1

* * *

- SYSTEM UNDER TEST: Cytochrome P450 2C19 (Homo sapiens, UniProt P33261)
- Sequence (P33261 whole entry): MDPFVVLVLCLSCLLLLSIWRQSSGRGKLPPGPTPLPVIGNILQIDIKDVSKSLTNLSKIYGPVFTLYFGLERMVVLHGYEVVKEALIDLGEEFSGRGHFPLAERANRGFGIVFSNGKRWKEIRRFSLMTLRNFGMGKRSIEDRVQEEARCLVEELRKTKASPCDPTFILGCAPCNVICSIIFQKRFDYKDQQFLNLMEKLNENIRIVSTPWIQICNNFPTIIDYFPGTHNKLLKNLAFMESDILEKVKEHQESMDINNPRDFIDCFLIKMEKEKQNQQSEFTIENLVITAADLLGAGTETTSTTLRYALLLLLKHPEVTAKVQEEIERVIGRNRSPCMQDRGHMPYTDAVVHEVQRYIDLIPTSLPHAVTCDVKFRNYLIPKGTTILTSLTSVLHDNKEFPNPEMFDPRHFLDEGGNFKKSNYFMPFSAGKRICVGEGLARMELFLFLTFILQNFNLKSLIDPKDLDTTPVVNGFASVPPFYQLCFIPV
pIC50: −log10 of the molar value.
PROPERTY: pIC50

Inquiry: // pIC50 lookup, key: O=C(O)C1CN(Cc2ccc(-c3noc(-c4onc(-c5ccccn5)c4C(F)(F)F)n3)cc2)C1
Reply text: < 4.40

* * *

- EXPERIMENT: Half life in rat at 2 mg/kg, iv
- Format: ADME, organism-based
- CONDITION SET: in vivo
PROPERTY: half-life (h)
Your answer is read as h, so omit the unit and give the number.

Inquiry: // half-life lookup, key: O=C(O)C1CN(Cc2ccc(-c3noc(-c4onc(-c5ccccn5)c4C(F)(F)F)n3)cc2)C1
Reply text: 4.8

* * *

- EXPERIMENT: Volume of distribution at steady state in dog at 1 mg/kg, iv
- Type: ADME, organism-based, Canis lupus familiaris
- CONDITION SET: in vivo, read-out: Vdss
PROPERTY: Vd
# answer = value followed by unit

Inquiry: // Vd lookup, key: O=C(O)C1CN(Cc2ccc(-c3noc(-c4onc(-c5ccccn5)c4C(F)(F)F)n3)cc2)C1
Reply text: 0.7 L/kg

* * *

- EXPERIMENT: Clearance in mouse at 2 mg/kg, iv
- Assay type: ADME, organism-based
- CONDITION SET: in vivo
PROPERTY: clearance (mL/min/kg)
Your answer is read as mL/min/kg, so omit the unit and give the number.

Inquiry: // clearance lookup, key: O=C(O)C1CN(Cc2ccc(-c3noc(-c4onc(-c5ccccn5)c4C(F)(F)F)n3)cc2)C1
Reply text: 0.3

* * *

- EXPERIMENT: Oral bioavailability in rat at 5 mg/kg
- Type: ADME, organism-based
- CONDITION SET: in vivo
PROPERTY: bioavailability (%)
Your answer is read as %, so omit the unit and give the number.

Inquiry: // bioavailability lookup, key: O=C(O)C1CN(Cc2ccc(-c3noc(-c4onc(-c5ccccn5)c4C(F)(F)F)n3)cc2)C1
Reply text: 100

* * *

- EXPERIMENT: Clearance in dog at 1 mg/kg, iv
- Format: ADME, organism-based, Canis lupus familiaris
- CONDITION SET: in vivo
PROPERTY: clearance
# answer = value followed by unit

Inquiry: // clearance lookup, key: O=C(O)C1CN(Cc2ccc(-c3noc(-c4onc(-c5ccccn5)c4C(F)(F)F)n3)cc2)C1
Reply text: 2.6 mL/min/kg

* * *

- EXPERIMENT: Half life in dog at 1 mg/kg, iv
- Type: ADME, organism-based, Canis lupus familiaris
- CONDITION SET: in vivo
PROPERTY: half-life
# answer = value followed by unit

Inquiry: // half-life lookup, key: O=C(O)C1CN(Cc2ccc(-c3noc(-c4onc(-c5ccccn5)c4C(F)(F)F)n3)cc2)C1
Reply text: 6.1 h

* * *

- EXPERIMENT: Clearance in cynomolgus monkey at 1 mg/kg, iv
- Type: ADME, organism-based, Macaca fascicularis
- CONDITION SET: in vivo
PROPERTY: clearance

Inquiry: // clearance lookup, key: O=C(O)C1CN(Cc2ccc(-c3noc(-c4onc(-c5ccccn5)c4C(F)(F)F)n3)cc2)C1
Reply text: 14 mL/min/kg

* * *

- EXPERIMENT: Protein binding in dog plasma
- Assay type: ADME, cell-free, Canis lupus familiaris
- CONDITION SET: read-out: PPB (converted)
PROPERTY: fraction unbound
Please state the value as a number alone, without comment.

Inquiry: // fraction unbound lookup, key: O=C(O)C1CN(Cc2ccc(-c3noc(-c4onc(-c5ccccn5)c4C(F)(F)F)n3)cc2)C1
Reply text: 0.274

* * *

- System: Rattus norvegicus
- EXPERIMENT: Reduction in circulating lymphocytes in Lewis rat at 1 mg/kg, po after 24 hrs
- Type: functional
PROPERTY: inhibition in vivo at 1 mg/kg (%)
Your answer is read as %, so omit the unit and give the number.

Inquiry: // inhibition in vivo at 1 mg/kg lookup, key: CC(C)c1c(-c2nc(-c3ccc(CN4CC(C(=O)O)C4)cc3)no2)noc1-c1ccccn1
Reply text: 64

Inquiry: Entry to check: CCCc1c(-c2ccccn2)noc1-c1nc(-c2ccc(CN3CC(C(=O)O)C3)cc2)no1
Reply text: 85

Inquiry: Entry to check: CCCc1c(-c2nc(-c3ccc(CN4CC(C(=O)O)C4)cc3)no2)noc1-c1ccccn1
Reply text: 53

Inquiry: Entry to check: CCc1c(-c2nc(-c3ccc(CN4CC(C(=O)O)C4)cc3)no2)noc1-c1ccccn1
Reply text: 58

Inquiry: Entry to check: O=C(O)C1CN(Cc2ccc(-c3noc(-c4onc(-c5ccccn5)c4C(F)(F)F)n3)cc2)C1
Reply text: 80

Inquiry: Entry to check: O=C(O)C1CN(Cc2ccc(-c3noc(-c4onc(-c5ccccc5)c4C(F)(F)F)n3)cc2)C1
Reply text: 91

* * *

- EXPERIMENT: Volume of distribution at steady state in cynomolgus monkey at 1 mg/kg, iv
- Assay type: ADME, organism-based, Macaca fascicularis
- CONDITION SET: in vivo, read-out: Vdss
PROPERTY: Vd (L/kg)
Your answer is read as L/kg, so omit the unit and give the number.

Inquiry: // Vd lookup, key: O=C(O)C1CN(Cc2ccc(-c3noc(-c4onc(-c5ccccn5)c4C(F)(F)F)n3)cc2)C1
Reply text: 0.5

* * *

- EXPERIMENT: Selectivity index, ratio of EC50 for agonist activity at human S1P3 receptor expressed in EDG3-Ga15-bla HEK293T cell membranes to EC50 for agonist activity at human S1P1 receptor expressed in CHO cell membranes
- Assay type: cell-based
Each record is given Satisfied if its reported Ratio EC50 is strictly below 3000. Records at or above 3000 are given Not satisfied.

Inquiry: Hello, I'm reviewing records and need to know if Ratio EC50 of CC(C)c1c(-c2nc(-c3ccc(CN4CC(C(=O)O)C4)cc3)no2)noc1-c1ccccn1 is below 3000. Could you check?
Reply text: Not satisfied

Inquiry: Entry to check: CCc1c(-c2nc(-c3ccc(CN4CC(C(=O)O)C4)cc3)no2)noc1-c1ccccn1
Reply text: Satisfied

Inquiry: Entry to check: O=C(O)C1CN(Cc2ccc(-c3noc(-c4onc(-c5ccccn5)c4C(F)(F)F)n3)cc2)C1
Reply text: Not satisfied

Inquiry: Entry to check: CCCc1c(-c2nc(-c3ccc(CN4CC(C(=O)O)C4)cc3)no2)noc1-c1ccccn1
Reply text: Satisfied
